inhibition at 15 µM listing for selected molecules.
Target: HLA-A1102 (Homo sapiens, UniProt P04439, A114D/D185E/E176A/E43K/F33Y/L180Q/S129P/T187R)
Construct: expressed in transfected cells; host or cells: HMy2.CIR
Assay: Peptide competitive binding assay, transfected HMy2.CIR cells, reference ATFQFK(FITC)VER
Conditions: HLA-A1102 HMy2.CIR cells; competitor peptide 15μM; 24 hours; flow cytometry; read-out: 15μM Inhibition (%)
Residues, ends and D or L forms follow the SMILES beside them.
Field format: number, assumed %, no unit text.

CSCC[C@H](NC(=O)[C@@H](N)CCSC)C(=O)N[C@@H](Cc1c[nH]c2ccccc12)C(=O)N[C@@H](Cc1ccc(O)cc1)C(=O)N[C@@H](Cc1c[nH]c2ccccc12)C(=O)NCC(=O)N1CCC[C@H]1C(=O)N[C@@H](CO)C(=O)N[C@@H](CC(C)C)C(=O)N[C@@H](Cc1ccc(O)cc1)C(=O)O [Epitope P108]: 0
CC(C)C[C@H](NC(=O)[C@H](CC(N)=O)NC(=O)CNC(=O)[C@H](Cc1c[nH]cn1)NC(=O)[C@H](C)NC(=O)[C@H](CC(N)=O)NC(=O)[C@@H](NC(=O)[C@@H](N)[C@@H](C)O)C(C)C)C(=O)N1CCC[C@H]1C(=O)N[C@@H](CCCCN)C(=O)O [Epitope P47] (H-TVNAHGNLPK-OH; N-terminus and C-terminus assumed): 44.2

Query block: For the molecule CC(C)C[C@H](NC(=O)[C@H](C)NC(=O)[C@H](CO)NC(=O)[C@H](C)NC(=O)[C@@H](NC(=O)[C@H](CC(=O)O)NC(=O)[C@H](CC(C)C)NC(=O)[C@@H](N)CC(C)C)[C@@H](C)O)C(=O)N[C@@H](Cc1ccc(O)cc1)C(=O)O [Epitope P111] , give its measured inhibition at 15 µM value.
Result block: 0
